molecular target: human STING WT (Homo sapiens (Human)); test: biochemical; format: binding
Sequence (Q86WV6 whole entry): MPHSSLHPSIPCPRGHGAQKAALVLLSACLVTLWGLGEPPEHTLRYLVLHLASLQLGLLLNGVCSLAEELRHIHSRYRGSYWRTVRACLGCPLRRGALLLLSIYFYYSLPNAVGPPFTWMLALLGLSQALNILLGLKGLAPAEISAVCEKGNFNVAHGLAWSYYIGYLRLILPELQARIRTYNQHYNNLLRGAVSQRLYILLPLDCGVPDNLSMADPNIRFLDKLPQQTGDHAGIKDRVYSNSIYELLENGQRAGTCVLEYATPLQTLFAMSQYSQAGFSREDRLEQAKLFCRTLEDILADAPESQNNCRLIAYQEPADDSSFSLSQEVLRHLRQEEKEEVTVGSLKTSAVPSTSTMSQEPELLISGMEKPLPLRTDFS
Assign pIC50 to each entry below.
Answers are plain numbers, as −log10 of the molar value.

INSERT INTO results (compound_smiles, observed_property, quantitative_readout) VALUES
  ('COc1cc2c(cc1OCCCOc1cc3cc(C(=O)CCC(=O)O)sc3cc1Br)CN(C(=O)CCC(=O)O)C2', 'pIC50', 9.19);

Okay, now this compound:
What does the data say about its pIC50? Entry: COc1cc2c(cc1OCCCOc1cc3cc(C(=O)CCC(=O)O)sc3cc1O)CN(C(=O)CCC(=O)O)C2 9.44
